Data provenance is ChEMBL document CHEMBL3045571.

System: Tribolium castaneum
TEST: Repellent activity against Tribolium castaneum (red flour beetle) assessed as induction of repellency measured 4 hr post compound exposure at 0.00002 uL/cm2 using 15% compound formulation
Format: functional
READOUT LABEL: Repellency (%)
Give a bare numeral; the unit % is implied.

# Repellency of CC(=O)OC/C=C(\C)CCC=C(C)C [GERANYL ACETATE] = 8

Repellency measured on C=C(C)[C@H]1CC=C(C)C(=O)C1 [(S)(+)CARVONE] = -10

Note to self: Repellency recorded for CC(C)=CCC/C(C)=C/C=O was 21

Entry under test: C=C(C)[C@@H]1CC=C(C)C(=O)C1 . Its Repellency was 19

Record CC(C)=CCC/C(C)=C/CO , field Repellency: 4

Record O=C(OCc1ccccc1)c1ccccc1O [BENZYL SALICYLATE] , field Repellency: -34

====

System: Tribolium castaneum
TEST: Repellent activity against Tribolium castaneum (red flour beetle) assessed as induction of repellency measured 4 hr post compound exposure at 0.02 uL/cm2 using 15% compound formulation
Format: functional
Can you tell me Repellency for the items I'm about to list?

O=C(OCc1ccccc1)c1ccccc1 [BENZYL BENZOATE] yielded Repellency of 44%

Entry C=C(C)[C@H]1CC=C(C)C(=O)C1 [(S)(+)CARVONE] , Repellency reported as 85%

The molecule listed as Cc1ccc(C(C)C)cc1O has a reported Repellency of 48%

In plain terms, CCCCN(CCC(=O)OCC)C(C)=O has a documented Repellency of 50%

So, CC(C)=CCC/C(C)=C\CO ? Its Repellency was 75%

Lab note: CC(C)=CCCC(C)CCO (stereo not drawn) gave Repellency of 85%

Form: molecule = C=CC(=C)CCC=C(C)C ; Repellency = 71%

get_value(item= CC(C)=CCC/C(C)=C/CO , readout=Repellency) returns 74%

Query C=C(C)[C@@H]1CC=C(C)C(=O)C1 yields Repellency of 74%

Query Cc1ccc(C(C)C)cc1 yields Repellency of 45%

// Repellency value for CC(=O)OC/C=C(\C)CCC=C(C)C [GERANYL ACETATE] : 63%

Lookup result for CC(C)=CCC/C(C)=C/C=O ; measured Repellency: 79%

Recorded Repellency (molecule O=C(OCc1ccccc1)c1ccccc1O [BENZYL SALICYLATE] ): 78%

====

TEST: Lipophilicity, logP of the compound
Type: physicochemical
RUN PARAMETERS: octanol/water
READOUT LABEL: logP

Short answer for C=C(C)[C@H]1CC=C(C)C(=O)C1 [(S)(+)CARVONE] : logP was 3.07

logP reported for this molecule CC(C)=CCC/C(C)=C\CO [NEROL] : 3.47

====

System: Tribolium castaneum
TEST: Repellent activity against Tribolium castaneum (red flour beetle) assessed as induction of repellency measured 4 hr post compound exposure at 0.00002 uL/cm2 using 15% compound formulation
Format: functional
READOUT LABEL: Repellency (%)
Note: unit % is implicit; provide only the numeric part.

C=CC(=C)CCC=C(C)C has a reported Repellency of 25

Briefly, Repellency measured for CCCCN(CCC(=O)OCC)C(C)=O : -6

Short answer for Cc1ccc(C(C)C)cc1 : Repellency was -5

Measured Repellency of CC(C)=CCCC(C)CCO (configuration not stated) : 40

Lookup result for Cc1ccc(C(C)C)cc1O ; measured Repellency: 5

Note to self: Repellency recorded for CC(C)=CCC/C(C)=C\CO was 8

Repellency in this record for O=C(OCc1ccccc1)c1ccccc1 [BENZYL BENZOATE] : 6
